Test system: MV-4-11 (carrying MLL-AF4)
test details: Inhibition of proliferation of human tumor cells (Alamar Blue, 7 days), MV-4-11
Format: cell-based
setup conditions: Homo sapiens, MV4-11, 168 h, MV-4-11 cells (carrying MLL-AF4), method calls the value GI50
value type: IC50 (nM)
Give a bare numeral; the unit nM is implied.

Recorded IC50 (compound `Cc1cncc2c(-c3ccc(F)cc3C(=O)N3CCOC[C@H]3C)cc(CC3CN(CC4CCOCC4)C3)n12` ): 7.1

Recorded IC50 (compound `Cc1nc(F)c2c(-c3ccc(F)cc3C(=O)N3[C@H](C)COC[C@H]3C)cc(C3CN(CC4CCN(C(=O)c5cn[nH]c5)CC4)C3)cn12` ): 9.2

Recorded IC50 (compound `Cc1nc(F)c2c(-c3ccc(F)cc3C(=O)N3[C@H](C)COC[C@H]3C)cc(C3CN(CC4CCN(C(=O)C5CCOCC5)CC4)C3)cn12` ): 12

* * *

experimental target: Menin-MLL (Homo sapiens)
Construct: His-Menin (M1-L615 end); purchased BIORTUS BP9210
Sequence (O00255 1-615 isoform O00255-1): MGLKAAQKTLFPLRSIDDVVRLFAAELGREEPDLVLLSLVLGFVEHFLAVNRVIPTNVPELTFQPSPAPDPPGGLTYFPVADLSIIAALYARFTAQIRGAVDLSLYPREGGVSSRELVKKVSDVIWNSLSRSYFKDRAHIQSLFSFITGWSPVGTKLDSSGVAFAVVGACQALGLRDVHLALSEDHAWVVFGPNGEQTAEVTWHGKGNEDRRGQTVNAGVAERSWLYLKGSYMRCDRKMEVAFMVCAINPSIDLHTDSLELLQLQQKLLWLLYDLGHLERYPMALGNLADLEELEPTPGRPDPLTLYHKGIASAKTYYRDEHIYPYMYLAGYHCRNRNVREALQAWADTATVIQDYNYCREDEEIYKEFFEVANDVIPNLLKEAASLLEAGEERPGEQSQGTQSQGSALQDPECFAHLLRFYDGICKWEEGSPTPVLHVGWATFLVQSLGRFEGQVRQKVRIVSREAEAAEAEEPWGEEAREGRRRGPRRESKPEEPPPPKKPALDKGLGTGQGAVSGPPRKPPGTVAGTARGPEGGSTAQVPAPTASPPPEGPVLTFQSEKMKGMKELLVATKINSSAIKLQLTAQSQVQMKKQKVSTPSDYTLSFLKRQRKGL
test details: Inhibitory activity against Menin-MLL binding (fluorescence polarization)
setup conditions: fluorescence polarization; 150 nM His-Menin, 15 nM FITC-MLL; 25°C for 60 min; read-out: Menin-MLL IC50
Consider the following compounds; for each one, report its pIC50.
Just so you know, pIC50 here is -log10 of the concentration in molar units; reply with that number alone.

Recorded pIC50 (compound CCN(C(=O)c1cc(F)ccc1-c1cc(N2CCN(C(=O)[C@@H]3CCCN3)CC2)c(Cl)n2c(C)ncc12)C(C)C [Example 115] ): 6.82

Recorded pIC50 (compound CCN(C(=O)c1cc(F)ccc1-c1cc(C2CN([C@@H](CN3C[C@@H](O)[C@H](O)C3)C(C)C)C2)cn2c(C)ncc12)C(C)C [Example 446-2] ): 7.36

Recorded pIC50 (compound CCN(C(=O)c1cc(F)ccc1-c1cc(C2CN([C@H](CCCN3CCN(CCO)C(=O)C3)C(C)C)C2)cn2c(C)ncc12)C(C)C [Example 486] ): 8.38

Recorded pIC50 (compound COCCN(C)CCC[C@@H](C(C)C)N1CC(c2cc(-c3ccc(F)cc3C(=O)N3[C@H](C)COC[C@H]3C)c3cnn(C)c3c2)C1 [Example 186-1] ): 6.58

Recorded pIC50 (compound COc1cc(-c2ccc(CCN3CCN(c4cc(-c5ccc(F)cc5C(=O)N5CCOC[C@H]5C)c5cnc(C)n5c4)CC3)cc2)nnc1OC [Example 86] ): 6.82

Recorded pIC50 (compound Cc1nc(F)c2c(-c3ccc(F)cc3C(=O)N3[C@H](C)COC[C@H]3C)cc(C3CN(CC4CCOCC4)C3)cn12 [Example 208] ): 8.05

Recorded pIC50 (compound Cc1nc(F)c2c(-c3ccc(F)cc3C(=O)N3CCOC[C@H]3C)cc(C3CN(C[C@H]4CC[C@H](n5cncn5)CC4)C3)cn12 [Example 253] ): 7.41

Recorded pIC50 (compound CCN(C(=O)c1cc(F)ccc1-c1cc(C2CCN(C(=O)[C@H]3N[C@@H]4CC[C@H]3C4)C2)cn2cncc12)C(C)C (stereo partly shown) [Example 38] ): 6.89

Recorded pIC50 (compound CCN(C(=O)c1cc(F)ccc1-c1cc(C2CN([C@H](CCCN3CCN(C)CC3)C(C)C)C2)cn2c(C)ncc12)C(C)C [Example 310-2] ): 8.44

Recorded pIC50 (compound CNCCCC(C(C)C)N1CC(c2cc(-c3ccc(F)cc3C(=O)N(CC(F)F)C(C)C)c3cnccn23)C1 (stereo not shown) [Example 146] ): 7.34

Recorded pIC50 (compound Cc1nc(F)c2c(-c3ccc(F)cc3C(=O)N3CCOC[C@H]3C)cc(C3CN([C@@H](C)C4CCN(C(=O)C5CC5)CC4)C3)cn12 [Example 299] ): 7.82

Recorded pIC50 (compound CCN(C(=O)c1cc(F)ccc1-c1cc(CC2CN([C@H](CCCN3CCN(CCO)CC3)C(C)C)C2)n2c(C)cncc12)C(C)C [Example 470] ): 9.05

Recorded pIC50 (compound CCN(C(=O)c1cc(F)ccc1-c1cc(C2CN([C@H](CN3CCN(C(CO)CO)CC3)C(C)C)C2)cc2c1cnn2C)C(C)C [Example 419] ): 8.09
